System: L929 mouse fibroblasts cells
assay.protocol: Cytotoxicity, propidium iodide fluorescence method
Assay type: cell-based
stated.conditions: 100 μM, 24-h incubation
Experimental: The cytotoxicity of the synthesized derivatives against L929 mouse fibroblasts cells was determined using the propidium iodide (PI) fluorescence method in the presence of different concentrations (1–100 μM) of these compounds. The results are presented in Table 4 in the form of the % cell survival values as PI% for the examined compounds. […] Chalcones c7, c8, c11, and c12 follow. […]
molecules and their reported 100 μM Average (% pi) ± σ
# number only, unit % dropped from output

Prompt: Report 100 μM Average (% pi) ± σ from L929 mouse fibroblasts cells testing of CC(=O)c1ccc(OCCCCOc2ccc(C(C)=O)cc2)cc1 [diii]
Response: 32.14

Prompt: Report 100 μM Average (% pi) ± σ from L929 mouse fibroblasts cells testing of O=C(/C=C/C(Br)=C\c1ccccc1)c1ccc(OCCCOc2ccc(C(=O)/C=C/C(Br)=C\c3ccccc3)cc2)cc1 [c9]
Response: 29.53

Prompt: Report 100 μM Average (% pi) ± σ from L929 mouse fibroblasts cells testing of CC(=O)c1ccc(OCCCCCCCOc2ccc(C(C)=O)cc2)cc1 [dvi]
Response: 2.55

Prompt: Report 100 μM Average (% pi) ± σ from L929 mouse fibroblasts cells testing of O=C(/C=C/C=C/c1ccc([N+](=O)[O-])cc1)c1ccc(OCCCOc2ccc(C(=O)/C=C/C=C/c3ccc([N+](=O)[O-])cc3)cc2)cc1 [c11]
Response: 64.53

Prompt: Report 100 μM Average (% pi) ± σ from L929 mouse fibroblasts cells testing of Cc1ccc(/C=C/C(=O)c2ccc(O)cc2)o1 [a12]
Response: 63.54

Prompt: Report 100 μM Average (% pi) ± σ from L929 mouse fibroblasts cells testing of O=C(/C=C/C=C/c1ccccc1)c1ccc(OCCCOc2ccc(C(=O)/C=C/C=C/c3ccccc3)cc2)cc1 [c7]
Response: 28.84

Prompt: Report 100 μM Average (% pi) ± σ from L929 mouse fibroblasts cells testing of O=C(/C=C/c1cccs1)c1ccc(O)cc1 [a5]
Response: 36.15

Prompt: Report 100 μM Average (% pi) ± σ from L929 mouse fibroblasts cells testing of O=C(/C=C/C1=C2C=CC=CC2NC1)c1ccc(O)cc1 (stereo not drawn) [a6]
Response: 6.67

Prompt: Report 100 μM Average (% pi) ± σ from L929 mouse fibroblasts cells testing of CC(/C=C/C(=O)c1ccc(OCCCOc2ccc(C(=O)/C=C/C(C)=C/c3ccccc3)cc2)cc1)=C\c1ccccc1 [c8]
Response: 38.7

Prompt: Report 100 μM Average (% pi) ± σ from L929 mouse fibroblasts cells testing of O=C(/C=C/C=C/c1ccccc1)c1ccc(O)cc1 [a7]
Response: 60.95

Prompt: Report 100 μM Average (% pi) ± σ from L929 mouse fibroblasts cells testing of O=C(/C=C/c1ccco1)c1ccc(O)cc1 [a10]
Response: 17.15

====

System: L929 mouse fibroblasts cells
assay.protocol: Cytotoxicity, propidium iodide fluorescence method
Type: cell-based
stated.conditions: 10 μM, 24-h incubation
The following ranges of 10 μM Average (% pi) ± σ define the classes used here: lower bin: < 3%; middle bin: ≥ 3% and < 10%; upper bin: ≥ 10%

Here's what some known entries look like.
molecule	group.label
O=C(/C=C/c1cccs1)c1ccc(OCCCOc2ccc(C(=O)/C=C/c3cccs3)cc2)cc1	lower bin
O=C(/C=C/C(Br)=C\c1ccccc1)c1ccc(OCCCOc2ccc(C(=O)/C=C/C(Br)=C\c3ccccc3)cc2)cc1	upper bin
Cc1ccc(/C=C/C(=O)c2ccc(O)cc2)o1	middle bin
Cc1ccc(/C=C/C(=O)c2ccc(OCCCOc3ccc(C(=O)/C=C/c4ccc(C)o4)cc3)cc2)o1	upper bin
CC(=O)c1ccc(OCCCCOc2ccc(C(C)=O)cc2)cc1	upper bin
CC(=O)c1ccc(OCCCCCOc2ccc(C(C)=O)cc2)cc1	middle bin

Prompt: Class? Entry: "CC(/C=C/C(=O)c1ccc(OCCCOc2ccc(C(=O)/C=C/C(C)=C/c3ccccc3)cc2)cc1)=C\c1ccccc1"
Response: upper bin

Prompt: Class? Entry: "CC(=O)c1ccc(OCCCCCCOc2ccc(C(C)=O)cc2)cc1"
Response: middle bin

Prompt: Class? Entry: O=C(/C=C/C1=C2C=CC=CC2NC1)c1ccc(O)cc1 (stereo not shown)
Response: lower bin

Prompt: Class? Entry: "O=C(/C=C/C=C/c1ccc([N+](=O)[O-])cc1)c1ccc(OCCCOc2ccc(C(=O)/C=C/C=C/c3ccc([N+](=O)[O-])cc3)cc2)cc1"
Response: upper bin

Prompt: Class? Entry: "CC(=O)c1ccc(OCCOc2ccc(C(C)=O)cc2)cc1"
Response: middle bin

Prompt: Class? Entry: "O=C(/C=C/c1ccco1)c1ccc(OCCCOc2ccc(C(=O)/C=C/c3ccco3)cc2)cc1"
Response: upper bin

Prompt: Class? Entry: "CC(=O)c1ccc(OCCCCCCCOc2ccc(C(C)=O)cc2)cc1"
Response: lower bin

Prompt: Class? Entry: "O=C(/C=C/c1ccco1)c1ccc(O)cc1"
Response: lower bin

Prompt: Class? Entry: "O=C(/C=C/C=C/c1ccc([N+](=O)[O-])cc1)c1ccc(O)cc1"
Response: middle bin

====

assay.protocol: Lipophilicity as RM values by RP-TLC
Type: physicochemical
Parameters: key: RM = log[(1/Rf) − 1]
stated.conditions: methanol/water 70/30, SD < 10%
Under this convention, T denotes RM strictly below 0.6 and F denotes RM at or above 0.6.

Here's what some known entries look like.
compound	group.label
O=C(/C=C/C=C/c1ccccc1)c1ccccc1O	T
O=C(/C=C/c1cccs1)c1ccc(O)cc1	T
CN(C)c1ccc(/C=C/C=C/C(=O)c2ccc(OCCOc3ccc(C(=O)/C=C/C=C/c4ccc(N(C)C)cc4)cc3)cc2)cc1	T
CC(=O)c1ccc(OCCOc2ccc(C(C)=O)cc2)cc1	F

Then this molecule:
Prompt: Does the reported RM of the following molecule sit strictly below 0.6? "O=C(/C=C/c1c[nH]c2ccccc12)c1ccc(OCCCOc2ccc(C(=O)/C=C/c3c[nH]c4ccccc34)cc2)cc1"
Response: T

====

compounds and their reported RM
assay.protocol: Lipophilicity as RM values by RP-TLC
Format: physicochemical
Parameters: key: RM = log[(1/Rf) − 1]
stated.conditions: methanol/water 70/30, SD < 10%

Here is how some compounds turned out for RM.
compound	RM
O=C(/C=C/C(Br)=C\c1ccccc1)c1ccc(O)cc1 [a9]	−0.82
CC(=O)c1ccc(OCCCCCCOc2ccc(C(C)=O)cc2)cc1 [dv]	−0.53
O=C(/C=C/C(Br)=C\c1ccccc1)c1ccccc1O [b9]	−0.37

Prompt: Output RM of O=C(/C=C/C=C/c1ccc([N+](=O)[O-])cc1)c1ccc(OCCCOc2ccc(C(=O)/C=C/C=C/c3ccc([N+](=O)[O-])cc3)cc2)cc1 [c11]
Response: −0.88

Prompt: Output RM of CC(/C=C/C(=O)c1ccc(OCCCOc2ccc(C(=O)/C=C/C(C)=C/c3ccccc3)cc2)cc1)=C\c1ccccc1 [c8]
Response: −0.85

====

compounds and their reported 1 μM Average (% pi) ± σ
System: L929 mouse fibroblasts cells
assay.protocol: Cytotoxicity, propidium iodide fluorescence method
Format: cell-based
stated.conditions: 1 μM, 24-h incubation
Put your answer as a value accompanied by its unit after it.

compound	target.of.assay	1 μM Average (% pi) ± σ
CC(=O)c1ccc(OCCCCCOc2ccc(C(C)=O)cc2)cc1	L929 mouse fibroblasts cells	4.89 ± 0.51%
CC(/C=C/C(=O)c1ccc(OCCCOc2ccc(C(=O)/C=C/C(C)=C/c3ccccc3)cc2)cc1)=C\c1ccccc1	L929 mouse fibroblasts cells	35.72 ± 10.23%
O=C(/C=C/C(Br)=C\c1ccccc1)c1ccc(OCCCOc2ccc(C(=O)/C=C/C(Br)=C\c3ccccc3)cc2)cc1	L929 mouse fibroblasts cells	12.5 ± 10.31%

Prompt: Output 1 μM Average (% pi) ± σ of "O=C(/C=C/c1cccs1)c1ccc(OCCCOc2ccc(C(=O)/C=C/c3cccs3)cc2)cc1"
Response: 0.32 ± 0.45%

Prompt: Output 1 μM Average (% pi) ± σ of "O=C(/C=C/c1c[nH]c2ccccc12)c1ccc(OCCCOc2ccc(C(=O)/C=C/c3c[nH]c4ccccc34)cc2)cc1"
Response: 1.12 ± 1.15%

====

Tested on: L929 mouse fibroblasts cells
assay.protocol: Cytotoxicity, propidium iodide fluorescence method
Type: cell-based
stated.conditions: 100 μM, 24-h incubation
metric: 100 μM Average (% pi) ± σ (%)
# number only, unit % dropped from output

Prompt: Output 100 μM Average (% pi) ± σ of CC(=O)c1ccc(OCCCCCCOc2ccc(C(C)=O)cc2)cc1 [dv]
Response: 9.69

Prompt: Output 100 μM Average (% pi) ± σ of CC(=O)c1ccc(OCCOc2ccc(C(C)=O)cc2)cc1 [di]
Response: 33.22

Prompt: Output 100 μM Average (% pi) ± σ of Cc1ccc(/C=C/C(=O)c2ccc(OCCCOc3ccc(C(=O)/C=C/c4ccc(C)o4)cc3)cc2)o1 [c12]
Response: 84.03

Prompt: Output 100 μM Average (% pi) ± σ of O=C(/C=C/C(Br)=C\c1ccccc1)c1ccc(O)cc1 [a9]
Response: 7.59
